Right ear thickness values by entry
Tested on: mice (C3H strain)
Assay: Ear thickness (primary skin irritancy) after topical application, Example 1
Assay type: in vivo
Conditions: day 0 (before application); C3H female mice, n=3
Protocol: The following example was performed to determine if pyrethroid compounds cause skin irritation (as indicated by ear thickness in mice). Skin irritants may contribute to promoting hair growth. Prior to the experiment, ear thickness of mice (C3H strain, female, 16 weeks of age, n=3/group) was measured with a thickness gage (Mitsutoyo Corp.). […] Ear thickness was measured for three consecutive days after administration.
quantity-kind: Right ear thickness (×0.01 mm)

molecule: CC1(C)[C@H](C(=O)O[C@H](C#N)c2cccc(Oc3ccccc3)c2)[C@@H]1C=C(Br)Br
tested-on: mice (C3H strain)
unit: ×0.01 mm
assay-result: 27.0
//
molecule: CC1(C)C(C=C(Cl)Cl)C1C(=O)OC(C#N)c1cccc(Oc2ccccc2)c1 (stereo not shown)
tested-on: mice (C3H strain)
unit: ×0.01 mm
assay-result: 27.7
//
molecule: CC1(C)C(C=C(Cl)Cl)C1C(=O)OCc1cccc(Oc2ccccc2)c1 (stereo not shown)
tested-on: mice (C3H strain)
unit: ×0.01 mm
assay-result: 27.3
//
molecule: CC(C)C(C(=O)OC(C#N)c1cccc(Oc2ccccc2)c1)c1ccc(Cl)cc1 (stereo not shown) [Fenvalerate, fenvalerate]
tested-on: mice (C3H strain)
unit: ×0.01 mm
assay-result: 27.3

* * *

Right ear thickness values by entry
system: mice (C3H strain); test: Ear thickness (primary skin irritancy) after topical application, Example 1; assay type: in vivo; conditions: day 3; 10 μL of 1% in ethanol on right ear; C3H mice

compound: CC1(C)C(C=C(Cl)Cl)C1C(=O)OCc1cccc(Oc2ccccc2)c1 (stereo not shown)
Right ear thickness / ×0.01 mm: 28.3
--
compound: CC1(C)[C@H](C(=O)O[C@H](C#N)c2cccc(Oc3ccccc3)c2)[C@@H]1C=C(Br)Br
Right ear thickness / ×0.01 mm: 28.0
--
compound: CC(C)C(C(=O)OC(C#N)c1cccc(Oc2ccccc2)c1)c1ccc(Cl)cc1 (stereo not shown) [Fenvalerate, fenvalerate]
Right ear thickness / ×0.01 mm: 27.0
--
compound: CC1(C)C(C=C(Cl)Cl)C1C(=O)OC(C#N)c1cccc(Oc2ccccc2)c1 (stereo not shown)
Right ear thickness / ×0.01 mm: 28.0

* * *

tested on: mice (Sencar strain); experiment: Ear thickness after TPA plus pyrethroid application, Example 2; type: in vivo; conditions: day 1; 20 μL TPA 10^−4 M in acetone then 10 μL of 1% in ethanol; Sencar mice

compound: CC1(C)C(C=C(Cl)Cl)C1C(=O)OCc1cccc(Oc2ccccc2)c1 (stereo not shown) [Permethrin, permethrin]
Right ear thickness / ×0.01 mm: 27.3
--
compound: CC(C)C(C(=O)OC(C#N)c1cccc(Oc2ccccc2)c1)c1ccc(Cl)cc1 (stereo not shown) [Fenvalerate, fenvalerate]
Right ear thickness / ×0.01 mm: 26.3
--
compound: CC1(C)C(C=C(Cl)Cl)C1C(=O)OC(C#N)c1cccc(Oc2ccccc2)c1 (stereo not shown) [Cypermethrin, cypermethrin]
Right ear thickness / ×0.01 mm: 26.7
--
compound: CC1(C)[C@H](C(=O)O[C@H](C#N)c2cccc(Oc3ccccc3)c2)[C@@H]1C=C(Br)Br [Deltamethrin, deltamethrin]
Right ear thickness / ×0.01 mm: 27.3

* * *

Right ear thickness values by entry
test system: mice (Sencar strain); test: Ear thickness after TPA plus pyrethroid application, Example 2; format: in vivo; details: day 3; 20 μL TPA 10^−4 M in acetone then 10 μL of 1% in ethanol; Sencar mice

compound: CC1(C)C(C=C(Cl)Cl)C1C(=O)OC(C#N)c1cccc(Oc2ccccc2)c1 (stereo not shown)
Right ear thickness (×0.01 mm): 27.3
--
compound: CC1(C)C(C=C(Cl)Cl)C1C(=O)OCc1cccc(Oc2ccccc2)c1 (stereo not shown)
Right ear thickness (×0.01 mm): 27.7
--
compound: CC(C)C(C(=O)OC(C#N)c1cccc(Oc2ccccc2)c1)c1ccc(Cl)cc1 (stereo not shown) [Fenvalerate, fenvalerate]
Right ear thickness (×0.01 mm): 26.7
--
compound: CC1(C)[C@H](C(=O)O[C@H](C#N)c2cccc(Oc3ccccc3)c2)[C@@H]1C=C(Br)Br
Right ear thickness (×0.01 mm): 28.0

* * *

test system: C3H strain mice; assay: Hair growth on clipped back skin, topical daily application, Example 4; assay type: in vivo; settings: Day 36; 1%, 5 μL/cm^2 daily; n=5/group
quantity-kind: Level of hair growth (unaided visual inspection)

compound: CC1(C)[C@H](C(=O)O[C@H](C#N)c2cccc(Oc3ccccc3)c2)[C@@H]1C=C(Br)Br
assay-result: 5

compound: CC1(C)C(C=C(Cl)Cl)C1C(=O)OC(C#N)c1cccc(Oc2ccccc2)c1 (stereo not shown)
assay-result: 5

compound: CC(C)C(C(=O)OC(C#N)c1cccc(Oc2ccccc2)c1)c1ccc(Cl)cc1 (stereo not shown) [Fenvalerate, fenvalerate]
assay-result: 4

compound: CC1(C)C(C=C(Cl)Cl)C1C(=O)OCc1cccc(Oc2ccccc2)c1 (stereo not shown)
assay-result: 0

* * *

system: C3H strain mice; experiment: Hair growth on clipped back skin, repeat with minoxidil control, Example 5; assay type: in vivo; set-up: scale not given here; details: 1%; Week 5
Level of hair growth (unaided visual inspection) values by entry
quantity-kind: Level of hair growth (unaided visual inspection)

compound: CC1(C)C(C=C(Cl)Cl)C1C(=O)OCc1cccc(Oc2ccccc2)c1 (stereo not shown) [Permethrin, permethrin]
tested-on: C3H strain mice
assay-result: 0
//
compound: CC1(C)[C@H](C(=O)O[C@H](C#N)c2cccc(Oc3ccccc3)c2)[C@@H]1C=C(Br)Br [Deltamethrin, deltamethrin]
tested-on: C3H strain mice
assay-result: 5
//
compound: CC1(C)C(C=C(Cl)Cl)C1C(=O)OC(C#N)c1cccc(Oc2ccccc2)c1 (stereo not shown) [Cypermethrin, cypermethrin]
tested-on: C3H strain mice
assay-result: 5
//
compound: CC(C)C(C(=O)OC(C#N)c1cccc(Oc2ccccc2)c1)c1ccc(Cl)cc1 (stereo not shown) [Fenvalerate, fenvalerate]
tested-on: C3H strain mice
assay-result: 5

* * *

Right ear thickness values by entry
test system: mice (C3H strain); experiment: Ear thickness (primary skin irritancy) after topical application, Example 1; type: in vivo; conditions: day 1; 10 μL of 1% in ethanol on right ear; C3H mice
quantity-kind: Right ear thickness (×0.01 mm)

compound: CC(C)C(C(=O)OC(C#N)c1cccc(Oc2ccccc2)c1)c1ccc(Cl)cc1 (stereo not shown) [Fenvalerate, fenvalerate]
assay-result: 28.0
//
compound: CC1(C)C(C=C(Cl)Cl)C1C(=O)OC(C#N)c1cccc(Oc2ccccc2)c1 (stereo not shown) [Cypermethrin, cypermethrin]
assay-result: 27.7
//
compound: CC1(C)[C@H](C(=O)O[C@H](C#N)c2cccc(Oc3ccccc3)c2)[C@@H]1C=C(Br)Br [Deltamethrin, deltamethrin]
assay-result: 27.3
//
compound: CC1(C)C(C=C(Cl)Cl)C1C(=O)OCc1cccc(Oc2ccccc2)c1 (stereo not shown) [Permethrin, permethrin]
assay-result: 27.7

* * *

tested on: mice (C3H strain); test: Ear thickness (primary skin irritancy) after topical application, Example 1; assay type: in vivo; settings: day 2; 10 μL of 1% in ethanol on right ear; C3H mice

compound: CC1(C)C(C=C(Cl)Cl)C1C(=O)OC(C#N)c1cccc(Oc2ccccc2)c1 (stereo not shown)
unit: ×0.01 mm
Right ear thickness: 27.3
//
compound: CC1(C)[C@H](C(=O)O[C@H](C#N)c2cccc(Oc3ccccc3)c2)[C@@H]1C=C(Br)Br
unit: ×0.01 mm
Right ear thickness: 27.3
//
compound: CC(C)C(C(=O)OC(C#N)c1cccc(Oc2ccccc2)c1)c1ccc(Cl)cc1 (stereo not shown) [Fenvalerate, fenvalerate]
unit: ×0.01 mm
Right ear thickness: 28.0
//
compound: CC1(C)C(C=C(Cl)Cl)C1C(=O)OCc1cccc(Oc2ccccc2)c1 (stereo not shown)
unit: ×0.01 mm
Right ear thickness: 27.7

The measurements presented in this section are drawn from patent US20010027213A1.
